Just for reference, paper PMC10058949 is where these values come from.

# assayNotes: in vivo
# Set-up: species or system mice
# measurementContext: female, BALB/c nude, mouse, iv, 20 pmol, total radioactivity, uptake in heart
assayReadout: tissue uptake at 24 h (%ID/g)

CCCC[C@@H](C(=O)N[C@@H](CC(=O)O)C(=O)N[C@@H](Cc1cccc2ccccc12)C(N)=O)N(C)C(=O)[C@H](Cc1c[nH]c2ccccc12)NC(=O)CCNC(=O)CC(O)CNC(=O)CC(O)CNC(=O)CN1CCN(CC(=O)O)CCN(CC(=O)O)CCN(CC(=O)O)CC1 (stereo partly shown) [[^177Lu]Lu-2, metal not drawn] : 0.05

###

# assayNotes: in vivo
# Set-up: species or system mice
# measurementContext: female, BALB/c nude, mouse, iv, 20 pmol, total radioactivity, uptake in stomach
assayReadout: tissue uptake at 24 h (%ID/g)

CCCC[C@@H](C(=O)N[C@@H](CC(=O)O)C(=O)N[C@@H](Cc1cccc2ccccc12)C(N)=O)N(C)C(=O)[C@H](Cc1c[nH]c2ccccc12)NC(=O)CCNC(=O)CC(O)CNC(=O)CC(O)CNC(=O)CN1CCN(CC(=O)O)CCN(CC(=O)O)CCN(CC(=O)O)CC1 (stereo partly shown) [[^177Lu]Lu-2, metal not drawn] : 3.66

###

# assayNotes: in vivo
# Parameters: species or system mice
# measurementContext: female, BALB/c nude, mouse, iv, 20 pmol, total radioactivity, Tumor-to-blood ratio
assayReadout: tissue to tissue ratio at 168 h

CCCC[C@@H](C(=O)N[C@@H](CC(=O)O)C(=O)N[C@@H](Cc1cccc2ccccc12)C(N)=O)N(C)C(=O)[C@H](Cc1c[nH]c2ccccc12)NC(=O)CCNC(=O)CC(O)CNC(=O)CC(O)CNC(=O)CN1CCN(CC(=O)O)CCN(CC(=O)O)CCN(CC(=O)O)CC1 (stereo partly shown) [[^177Lu]Lu-2, metal not drawn] : 241

###

# assayNotes: Biodistribution 4 h p.i. in A431-CCK2R/A431-mock xenografted BALB/c nude mice
# Format: in vivo
# measurementContext: female, BALB/c nude, mouse, in vivo, iv, 20 pmol, total radioactivity, uptake in blood
# Method: Then, after 7–11 days, when visible tumor xenografts were formed, groups of 5 mice were injected intravenously via a lateral tail vein with ~0.5 MBq of radiolabeled peptide, corresponding to 20 pmol of peptide, in a total volume of ~150 µL in PBS/0.5% BSA. […] For quantification, a 1:1, 1:10 and 1:50 standard was prepared using aliquots of the injection solution mixed with PBS/0.5% BSA. […] Results were expressed as percentage of injected activity per gram of tissue (%IA/g).
assayReadout: tissue uptake at 4 h (%ID/g)

CCCC[C@@H](C(=O)N[C@@H](CC(=O)O)C(=O)N[C@@H](Cc1cccc2ccccc12)C(N)=O)N(C)C(=O)[C@H](Cc1c[nH]c2ccccc12)NC(=O)CCNC(=O)CC(O)CNC(=O)CC(O)CNC(=O)CN1CCN(CC(=O)O)CCN(CC(=O)O)CCN(CC(=O)O)CC1 (stereo partly shown) [[^177Lu]Lu-2, metal not drawn] : 0.03

###

# assayNotes: in vivo
# Set-up: species or system mice
# measurementContext: female, BALB/c nude, mouse, iv, 20 pmol, total radioactivity, uptake in femur
assayReadout: tissue uptake at 1 h (%ID/g)

CCCC[C@@H](C(=O)N[C@@H](CC(=O)O)C(=O)N[C@@H](Cc1cccc2ccccc12)C(N)=O)N(C)C(=O)[C@H](Cc1c[nH]c2ccccc12)NC(=O)CCNC(=O)CC(O)CNC(=O)CC(O)CNC(=O)CN1CCN(CC(=O)O)CCN(CC(=O)O)CCN(CC(=O)O)CC1 (stereo partly shown) [[^177Lu]Lu-2, metal not drawn] : 0.23
